Reported inhibition by item:
# Protocol Text: inhibitors of the yeast RAM network, pilot screen, dse1pr::URA3 reporter, 5-FOA selection (AID 869);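 also: 0% = DMSO wells with no growth and 100% = 10 µM 1-NA-PP1 with full growth; RAM network block rescues cells from 5-FOA so hits raise OD615 growth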
# Details: S. cerevisiae dse1pr::URA3 5-FOA growth, OD615, 2 d; at 10 µM; stronger effect = higher value; strain carries analog-sensitive mutant Cbk1 kinase
Please respond with the number in % and leave the unit unwritten.

// below: answered molecules
COc1cccc(-n2nnc3c(=O)n(CC(=O)NCC4CCCO4)cnc32)c1 (stereo unspecified) = -0.415
CCn1cc(Br)c(C(=O)Nc2ccc(F)c(Cl)c2)n1 = -0.565
O=C1C2C(c3ccccc3)C=CC(c3ccccc3)C2C(=O)N1CCO (stereo unspecified) = 0.33
COc1ccc(-c2nnc3ccc(SCC(=O)N4CCCCC4)nn23)cc1OC = 0.24
Cc1ccc(C2c3c(oc4cc(C)c(C)cc4c3=O)C(=O)N2CCCN2CCOCC2)cc1 (stereo unspecified) = 3.33

Kindly note the recorded inhibition for `CCOc1ccc(N(CC(=O)NCC(C)C)S(C)(=O)=O)cc1` , which is 0.96

Kindly note the recorded inhibition for `O=C(CCc1ccccc1)Nc1ccc(NC(=O)c2ccco2)cc1` , which is 1.44

Kindly note the recorded inhibition for CC(Oc1ccc(Cl)cc1Cl)C(=O)NCCN1CCOCC1 (stereo unspecified) , which is -0.29

Kindly note the recorded inhibition for CCOC(=O)N1CCN(C(c2ccc(C(C)C)cc2)c2sc3nc(C)nn3c2O)CC1 (stereo unspecified) , which is 0.2

Kindly note the recorded inhibition for `Cc1cc(NC(=O)c2cc(CC(C)C)on2)no1` , which is 0.67

Kindly note the recorded inhibition for `COC(=O)c1cc(OC)c(OC)cc1-n1cnc2cc(OC)c(OC)cc2c1=O` , which is 0.665

###

# Protocol Text: growth suppression of beta-catenin knockout HCT116, pilot screen, human colon tumor cells (AID 823);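 also: 0% = wells killed by 20 µM Hyamine and 100% = untreated DMSO cell wells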
# Details: CellTiter-Glo, 60 h, at 10 µM
Records with an inconclusive call do not appear. Active and inactive are the calls of the source.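 How the source made its calls: active means cell viability at or below a set limit in both duplicate runs, the limit being the all-compound median minus 4 SD (cut at about 23% in these data, passing the limit was not always enough); inconclusive means no clear call, values can overlap the other calls; inactive means the rest.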
Permitted responses: true (1) = active, false (0) = inactive

C=CCn1c(O)c(C2=c3ccccc3=NC2=O)sc1=Nc1ccc(O)cc1 = true (1)
COc1ccc(N2CCN(c3cc(C)c4ccc(O)cc4n3)CC2)cc1 = false (0)

**Query** What call does the record list for `CCOC(=O)N1CCN(C(=O)c2oc(=O)c3ccccc3c2-c2ccc(C)cc2)CC1` ?
**Result** false (0)

**Query** What call does the record list for CC(Sc1ccc2nnc(-c3ccc(F)cc3)n2n1)C(=O)O (stereo not given) ?
**Result** false (0)

**Query** What call does the record list for COc1ccc(N2C(=O)CCC(C(=O)NCc3ccccn3)C2c2ccc(OC)c(OC)c2)cc1 (stereo not given) ?
**Result** false (0)

###

Reported growth inhibition by item:
# Protocol Text: OD615 S. cerevisiae growth inhibition, permissive medium, pilot counter-assay, permissive growth control for S. cerevisiae lifespan shortening project (AID 705)
# Details: OD615, 24 h, at 10 µM, stronger effect = higher value
Please respond with the number in % and leave the unit unwritten.

// below: answered compounds
CCOC(=O)C1CCN(C(c2ccc(OC)c(OC)c2)c2sc3nc(C)nn3c2O)CC1 (stereo unspecified) = -3.62
CC1CCCCN1S(=O)(=O)c1coc(C(N)=O)c1 (stereo unspecified) = -12.1
Cc1ccc2oc(=O)c3cc(C(=O)NCc4ccco4)sc3c2c1 = -8.27

Kindly note the recorded growth inhibition for COc1cccc(C2N(c3ccc(Cl)cc3)C(=O)C3CCCN32)c1 (stereo unspecified) , which is -5.56

Kindly note the recorded growth inhibition for `CCN1CCN(CC(=O)Nc2cccc(C)c2C)C(=O)C1=O` , which is -3.54

Kindly note the recorded growth inhibition for `CCOc1cccc(-c2nc(C(N)=O)c3[nH]c(=O)n(-c4cccc(Cl)c4)c3n2)c1O` , which is -2.52

###

# Protocol Text: growth suppression of beta-catenin knockout HCT116, pilot screen, human colon tumor cells (AID 823);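 also: 0% = wells killed by 20 µM Hyamine and 100% = untreated DMSO cell wells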
# Details: CellTiter-Glo, 60 h, at 10 µM, stronger effect = lower value
Inconclusive results are not listed.
Reported viability by item:
Please respond with the number in % and leave the unit unwritten.

// below: answered compounds
COc1cccc(-n2c(Cc3cc(=O)[nH]c(=O)[nH]3)nnc2SCC(=O)N2CCCCCC2)c1 = 99.3
Cc1ccc(CNC(=O)c2ccc(Br)o2)cc1 = 96.9
COc1ccc(NC(=O)CN(c2cc(C)cc(C)c2)S(=O)(=O)c2c(C)noc2C)cc1 = 95.2
CCCC(=O)OCCNC(=O)c1cc2ccccc2oc1=O = 102
COCCCNC(=O)c1ccccc1Oc1ccccc1 = 96.3

Kindly note the recorded viability for `CCSc1nnc2c(n1)[nH]c1c(C)cccc12` , which is 47.9

Kindly note the recorded viability for `O=c1[nH]c(NC2CCCCC2)nnc1Cc1ccccc1` , which is 102

Kindly note the recorded viability for COc1cccc(-c2nc(CS(=O)CC(=O)NCc3ccccc3Cl)c(C)o2)c1 (configuration not stated) , which is 92.4

Kindly note the recorded viability for `CCOC(=O)c1ccccc1Nc1cc(C)nc2nc(C)nn12` , which is 97.6

Kindly note the recorded viability for `CCOC(=O)c1c(N)sc2c(O)c(Br)ccc12` , which is 104

Kindly note the recorded viability for `COc1ccccc1N(CC(=O)N1CCCCCC1)S(C)(=O)=O` , which is 89.1

Kindly note the recorded viability for `Brc1ccc(-c2nnc3sc(CNC4CCCC4)cn23)cc1` , which is 106

###

# Protocol Text: Restrictive medium S. cerevisiae growth inhibition, OD615, pilot screen of yeast lifespan reduction project, restrictive growth control (AID 706);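 also: modified DeaD lifespan yeast strain shifted to restrictive glucose medium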
# Details: OD615, 48 h, at 10 µM, stronger effect = higher value
Parameter: growth inhibition (%)
Please respond with the number in % and leave the unit unwritten.

CCOC(=O)C1=C(C)NC(=O)CC1c1cc2c(cc1Br)OCO2 (stereo not drawn) = -5.8
O=C(CSc1ccc2nnc(-c3ccc(Cl)cc3)n2n1)N1CCN(c2ccccc2)CC1 = 63.7
CCOC(=O)c1[nH]c2c(c1C)C(=O)CC(c1ccc(N(C)C)cc1)C2 (stereo not drawn) = -0.995

Kindly note the recorded growth inhibition for CCCCCn1c(=N)n(CC(O)COc2ccccc2OC)c2ccccc21 (stereo not drawn) , which is 4.88

Kindly note the recorded growth inhibition for O=C1NC(c2cccs2)C(C(=O)c2ccccc2)C(O)(C(F)(F)F)N1 (stereo not drawn) , which is -7.88

Kindly note the recorded growth inhibition for `CCOC(=O)C1CCN(C(=O)COc2cc(C)c(Br)c(C)c2)CC1` , which is -16.5

Kindly note the recorded growth inhibition for `CCCCOc1ccc(CN2CCC(O)CC2)cc1` , which is -6.13

Kindly note the recorded growth inhibition for `CCOc1cccc(NC(=O)c2ccc(S(=O)(=O)N3CCCC3)cc2)c1` , which is -11.1

Kindly note the recorded growth inhibition for `O=C(NCCN1CCOCC1)c1ccc2c(c1)N(Cc1ccc(F)cc1)C(=O)CS2` , which is -8.1

Kindly note the recorded growth inhibition for CC(=O)c1ccc(OCCCC(=O)NCC(c2ccco2)N(C)C)cc1 (stereo not drawn) , which is -0.015

Kindly note the recorded growth inhibition for CCOc1ccccc1NC(=O)CSc1nc2c(c(=O)n1C)SC(C)C2 (stereo not drawn) , which is -4.14

###

# Protocol Text: OD615 S. cerevisiae growth inhibition, permissive medium, pilot counter-assay, permissive growth control for S. cerevisiae lifespan shortening project (AID 705)
# Details: OD615, 24 h, at 10 µM, stronger effect = higher value
Reported growth inhibition by item:
Please respond with the number in % and leave the unit unwritten.

Kindly note the recorded growth inhibition for `Cc1[nH]n(-c2ccccc2)c(=O)c1S(=O)(=O)c1ccccc1` , which is -0.29

Kindly note the recorded growth inhibition for COC(=O)c1nc2n(n1)C(c1cccc(Cl)c1)C1=C(CC(C)(C)CC1=O)N2 (stereo unspecified) , which is 2.12

Kindly note the recorded growth inhibition for `CCOCN(C(=O)Cn1c(CO)nc2ccccc21)c1c(C)cccc1CC` , which is -10.7

Kindly note the recorded growth inhibition for `Cc1ccccc1NS(=O)(=O)c1cccc(-c2nnc(-c3ccccc3)o2)c1` , which is -8.74

Kindly note the recorded growth inhibition for CCSCCOC(=O)C1=C(C)N(C)C(=O)NC1c1cc(OC)ccc1OC (stereo unspecified) , which is 0.26

Kindly note the recorded growth inhibition for `Cc1cccc(NC(=O)c2cccnc2)c1` , which is -3.06

Kindly note the recorded growth inhibition for `CCOc1ccc(NC(=O)CCS(=O)(=O)c2cccc3nsnc23)cc1` , which is -1.9

Kindly note the recorded growth inhibition for `COc1ccc(NC(=O)c2ccc(CN3CCN(c4ccccc4)CC3)cc2)cc1` , which is -7.38

Kindly note the recorded growth inhibition for Cc1oc(-c2ccccc2F)nc1CS(=O)CC(=O)NCc1cccs1 (stereo unspecified) , which is -2.83

Kindly note the recorded growth inhibition for `COC(=O)C1CCN(C(=O)c2ccccc2NC(C)=O)CC1` , which is -12

Kindly note the recorded growth inhibition for `COc1ccc(C)cc1Nc1cc(C)nc2ncnn12` , which is -7.14
